# Test system: HPPD polypeptides
# run.description: coupled HPPD activity assay: turnover and residual turnover in crude extracts
# Type: biochemical, Pseudomonas fluorescens
# run.parameters: presence of 100 μM Cmpd. 1; high substrate concentration; changes in absorbance (OD) at 320 nm
quantity: Residual turnover
Answers are plain numbers.

>  <molecule>
70 (protein, mutant HPPD polypeptide) MADLYENPMGLMGFEFIEFASPTPGTLEPIFEIMGFTKVATHRSKNVHLYRQGEINLILNNEPNSIASYFAAEHGPSVCGMAFRVKDSQKAYNRALELGAQPIHIDTGPMELNLPAIKGIGGAPLYLIDRFGEGSSIYDIDFVYLEGVERNPVGAGLKVIDHLTHNVYRGRMVYWANFYEKLFNFREARYFDIKGEYTGLTSKAMSAPDGMIKIPLNEESSKGAGQIEEFLMQFNGEGIQHVAFLTDDLVKTWDALKKIGMRFMTAPADSYYEMLEGRLPDHGEPVDQLQARGILLDGSSVEGDKRLLLQIFSEQLMGPVFFEFIQRKGDDGFGPHSFKVLFEQMERDQVRRGVLTAD

>  <quantity>
Residual turnover

>  <experimental.value>
0.240

$$$$

Moving on to the next molecule.
Exam item: Fill blank: measured Residual turnover of the molecule 43 (protein, mutant HPPD polypeptide) MADLYENPMGLMGFEFIEFASPTPGTLEPIFEIMGFTKVATHRSKNVHLYRQGEINLILNNEPNSIASYFAAEHGPSVCGMAFRVKDSQKAYNRALELGAQPIHIDTGPMELNLPAIKGIGGAPLYLIDRFGEGSSIYDIDFVYLEGVERNPVGAGLKVIDHLTHNVYRGRMVYWANFYEKLFNFREARYFDIKGEYTGLTSKAMSAPDGMIRIPLNEESSKGAGQIEEFLMQFNGEGIQHVAFLTDDLVKTWDALKKIGMRFMTAPADEYYEMLEGRLPDHGEPVDQLQARGILLDGSSVEGDKRLLLQIFSETLMGPVFFEFIQRKGDDGFGPHSFKVLFEQVERDQVRRGVLTAD is ____.
Marked response: 0.110
